Data credit: the EternaBench riboswitch data

- Tested on: MS2 coat protein
- assayNotes: apparent Kd, MS2 coat protein; higher = weaker binding; RNA-MaP array; FMN 200 µM where present
- conditionDetails: ligand present: flavin mononucleotide; designed as: OFF switch for flavin mononucleotide
measurementLabel: apparent Kd (nM)
Numbers only, in nM.

// worked examples, apparent Kd included
sequenceData: CGAUAUAUGAAGGGCAAAGGCCCACAUGAGGAUCACCCAUGUAGAAGGCGAUCCGCAACGCGGAUCGAGGAUAUAUAGUAUACA
apparent Kd, nM: 8.1
//
sequenceData: AGAGUGUGAGGAUAUAUGGUGCAGAUGAAGGGAUAGAAGGAGUAGAAGGUACAUGAGGAUCACCCAUGUUAGGA
apparent Kd, nM: 21.7
//
sequenceData: CGGGCUGCUGUGAGGAUAUGCCUGUGGGUGCGUGGGUAGAAGGCACAUGAGGAUCACCCAUGUCCUGCAGCUCG
apparent Kd, nM: 717
//
sequenceData: GUUUCGUGAGGAUAUGUGGCUUCGAUCGUGCGAACGAGGCUACAGAAGGCACAUGAGGAUCACCCAUGUUCCUC
apparent Kd, nM: 481
//
sequenceData: GCCAAUACCGAGGAUAUCCUGAAGCACAUAUCUGGAGAAGGCGGUACAUGAGGAUCACCCAUGUGCUCGUGAGA
apparent Kd, nM: 33

Return reported apparent Kd values for all items listed beneath this line.
1. AAACAUGUCCGAGGAUAUCUGGAAACAUUUUCAAGAGAAGGCGGACAUGAGGAUCACCCAUGUCUCUCCUCAUCAAAUCCAAGU
2. AAACAAGCAGGGAUGCUUCGCAGGGAGGAUAUCUGACUGGGCGGACAUGAGGAUCACCCAUGUACAGAGAAGGCCCAAAGCACC
3. UAUAUAAUAAGAGCUGGCUCUAAAACAUGAGGAUCACCCAUGUAGGAUAUCAGCACGAUAAGUGCUGAGAAGGACAACCAGCUC
4. UGUCGGAGCAGAGGAUAUUACAUGAGGAUCACCCAUGUAUGAACCAAUUGCUGGAAACAGCAAUGUAAGAAGGCUGCUCCGACA
5. GAGUACUGAGGAUAUACAUGAGGAUCACCCAUGUGUUCCAGCUAGGAAACUAGCAAAAGUAGAAGGCAGUACUG

[148, 32, 17.3, 9.44, 156]

Return reported apparent Kd values for all items listed beneath this line.
1. UGGGCCUCGUGAGGAUAUACAUGAGGAUCACCCAUGUAAUAAAGUGAACGGAGGAAACUCCGAAUGUAGAAGGCACGAGGCUCA
2. UCGCGGGUGCAGAAGGGAUAGGCCUAUUGUCGUGGUGUCCAAACUUAACAUGAGGAUCACCCAUGUCAGGAUAUGCCCACGCGA
3. CCUUUGAAGAUCCUAAAUUUCGACAUGAGGAUCACCCAUGUGCAGGAUAUCGUGCCAGUGAUGUACGAGAAGGGCCGUCUCUGC
4. UCAGUAGAGUCAGGAUAUACCGAAAAGAAUCCUCACAUGAGGAUCACCCAUGUAGAAGGGACUCUACUGUAAGUCGGAAACGAC
5. ACGACUAGAGGAUAUACAUGAGGAUCACCCAUGUAACUGUCAGGAGACUGACGGAGAUGUAGAAGGCUAGUCGA

[147, 117, 155, 868, 39.2]

Return reported apparent Kd values for all items listed beneath this line.
1. UGACCCUGGAAGAGUGUUUAGACAUGAGGAUCACCCAUGUCUGAGGAUAUGCGGCAUCAAUAACAGCAGAAGGCAGACUUGGGU
2. AAAAGGUCAGGAUAUACAAAAAAAAAAAAAAAAAAAAAAAAGUAGAAGGGACAUGAGGAUCACCCAUGUGAAAA
3. CUGUUAUAGGUCCAUUUUUACAACAUGAGGAUCACCCAUGUGCAGGAUAUCGUGUUAAUUUUCAUCGAGAAGGGCAUAGUCACG
4. GCACUGACAGGAUAUACAUGAGGAUCACCCAUGUGACCCUUAUAGUACUCGCGUACUGGUAGAAGGGUCUGUGC
5. GGCCCACAUGAGGAUCACCCAUGUGAGGAUAUGUUAGUUUCGGCGAAAGCCGAAAUUAACAGAAGGCACAGGCC

[32.7, 74, 61.2, 558, 13.6]
